- Tested on: SF-539
- test_name: Cytotoxicity against Homo sapiens (human) SF539 cells after 48 hr by SRB assay
- Type: functional
- test_context: SF-539, 48 h
Recorded measurements of GI50, one per entry

Some solved cases for reference:
>>> df
                                   compound  experimental_value
0  O=C1CCS/C(=N\S(=O)(=O)c2ccc(N3N=C4c5ccccc5CC4C3c3cccs3)cc2)N1C(=O)c1ccccc1 (stereo not drawn)             23.8 µM
1  NS(=O)(=O)c1ccc(N2N=C3c4ccccc4CC3C2c2cccs2)cc1 (stereo not drawn)             17.4 µM
2  O=C(Nc1ccccc1)NS(=O)(=O)c1ccc(-n2nc3c(c2-c2cccs2)Cc2ccccc2-3)cc1               25 µM

Read the entry O=S(=O)(/N=c1\scc(-c2ccccc2)n1-c1ccccc1)c1ccc(N2N=C3c4ccccc4CC3C2c2cccs2)cc1 (stereo not drawn) and write its reported GI50.
> 100 µM

Read the entry O=S(=O)(NC(=S)Nc1ccccc1)c1ccc(N2N=C3c4ccccc4CC3C2c2cccs2)cc1 (stereo not drawn) and write its reported GI50.
22.7 µM

Read the entry O=C(NC1CCCCC1)NS(=O)(=O)c1ccc(-n2nc3c(c2-c2cccs2)Cc2ccccc2-3)cc1 and write its reported GI50.
27.6 µM

Read the entry O=C(Nc1ccccc1)NS(=O)(=O)c1ccc(N2N=C3c4ccccc4CC3C2c2cccnc2)cc1 (stereo not drawn) and write its reported GI50.
30.6 µM

Read the entry O=C1CS/C(=N\S(=O)(=O)c2ccc(N3N=C4c5ccccc5CC4C3c3cccs3)cc2)N1C(=O)c1ccccc1 (stereo not drawn) and write its reported GI50.
44.6 µM

Read the entry O=C(c1ccccc1)n1c(-c2ccccc2)cs/c1=N\S(=O)(=O)c1ccc(N2N=C3c4ccccc4CC3C2c2cccs2)cc1 (stereo not drawn) and write its reported GI50.
58.6 µM
